- testedOn: recombinant human Cox-2 (r-hu Cox-2) (Homo sapiens)
- Construct: made in house; host or cells: baculovirus/Sf9 insect cells (microsomes)
- Sequence (P35354 18-604): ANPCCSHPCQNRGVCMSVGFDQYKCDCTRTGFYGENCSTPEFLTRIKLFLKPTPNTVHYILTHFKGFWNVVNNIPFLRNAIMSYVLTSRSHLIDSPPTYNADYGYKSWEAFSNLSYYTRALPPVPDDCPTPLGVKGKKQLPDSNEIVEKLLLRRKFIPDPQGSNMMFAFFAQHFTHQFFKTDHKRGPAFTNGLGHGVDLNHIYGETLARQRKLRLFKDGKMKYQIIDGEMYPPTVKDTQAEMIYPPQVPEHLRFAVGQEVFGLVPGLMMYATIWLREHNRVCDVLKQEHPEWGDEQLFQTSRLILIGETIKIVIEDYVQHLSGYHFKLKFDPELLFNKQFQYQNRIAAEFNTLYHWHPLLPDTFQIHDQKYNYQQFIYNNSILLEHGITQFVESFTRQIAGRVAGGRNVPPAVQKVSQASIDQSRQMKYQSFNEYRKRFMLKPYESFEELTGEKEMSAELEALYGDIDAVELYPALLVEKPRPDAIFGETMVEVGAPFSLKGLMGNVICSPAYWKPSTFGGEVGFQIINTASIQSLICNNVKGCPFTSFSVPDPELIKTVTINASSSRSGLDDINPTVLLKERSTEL
- assayProcedure: Recombinant human PGHS-2 enzyme assay (RHUCX2)
- Format: biochemical
- testConditions: 10 μM
The reader will find reported RHUCX2 % Inh. at Dose (μM) values listed item by item below.
readout: RHUCX2 % Inh. at Dose (μM)

compound | readout | reportedResult
CS(=O)(=O)c1ccc(-c2cnn(-c3ccc(F)cc3)c(=O)c2COc2ccc(F)cc2)cc1 [Example 194] | RHUCX2 % Inh. at Dose (μM) | 90 @ 10%
CS(=O)(=O)c1ccc(-c2cnn(CC(F)(F)F)c(=O)c2SC2CCCC2)cc1 [Example 283] | RHUCX2 % Inh. at Dose (μM) | 90 @ 10%
CS(=O)(=O)c1ccc(-c2cnn(CC(F)(F)F)c(=O)c2Oc2cc(C(F)(F)F)ccc2F)cc1 [Example 263] | RHUCX2 % Inh. at Dose (μM) | 85 @ 10%
CS(=O)(=O)c1ccc(-c2cnn(-c3cccc(Cl)c3)c(=O)c2C2CCCC2)cc1 [Example 362] | RHUCX2 % Inh. at Dose (μM) | 84 @ 10%
Cc1cc(-c2c(-c3ccc(S(N)(=O)=O)cc3)cnn(-c3ccc(F)cc3)c2=O)ccc1F [Example 390] | RHUCX2 % Inh. at Dose (μM) | 99 @ 10%
CN(Cc1ccccc1)c1c(-c2ccc(S(C)(=O)=O)cc2)cnn(-c2cccc(Cl)c2)c1=O [Example 354] | RHUCX2 % Inh. at Dose (μM) | 45 @ 10%
CS(=O)(=O)c1ccc(-c2cnn(CC(F)(F)F)c(=O)c2OCCN2CCOCC2)cc1 [Example 273] | RHUCX2 % Inh. at Dose (μM) | 54 @ 10%
CS(=O)(=O)c1ccc(-c2cnn(CC(F)(F)F)c(=O)c2Nc2ccc(F)cc2F)cc1 [Example 314] | RHUCX2 % Inh. at Dose (μM) | 51 @ 10%

====

The reader will find reported inhibition at 1 µM values listed item by item below.
- testedOn: recombinant human Cox-2 (r-hu Cox-2) (Homo sapiens)
- Construct: made in house; host or cells: baculovirus/Sf9 insect cells (microsomes)
- assayProcedure: Recombinant human PGHS-2 enzyme assay (RHUCX2)
- Assay type: biochemical
- testConditions: 1 μM; read-out: RHUCX2 % Inh. at Dose

compound | inhibition at 1 µM (%)
CS(=O)(=O)c1ccc(-c2cnn(-c3cccc(Cl)c3)c(=O)c2Cc2ccc(F)cc2)cc1 [Example 369] | 70
NS(=O)(=O)c1ccc(-c2cnn(Cc3ccc(F)c(F)c3)c(=O)c2-c2ccc(F)cc2)cc1 [Example 127] | 74
NS(=O)(=O)c1ccc(-c2cnn(-c3ccc(F)cc3)c(=O)c2-c2ccc(F)cc2)cc1F [Example 72] | 65
CS(=O)(=O)c1ccc(-c2cnn(CC(F)(F)F)c(=O)c2SC2CCCCC2)cc1 [Example 287] | 79
Cc1ccc(-n2ncc(-c3ccc(S(C)(=O)=O)cc3)c(-c3ccc(F)cc3)c2=O)s1 [Example 168] | 85
Cc1cc(-c2c(-c3ccc(S(C)(=O)=O)cc3)cnn(-c3ccc(F)c(Cl)c3)c2=O)ccc1F [Example 247] | 71
CC(C)COc1c(-c2ccc(S(C)(=O)=O)cc2)cnn(-c2ccc(F)c(F)c2)c1=O [Example 346] | 94
CS(=O)(=O)c1ccc(-c2cnn(Cc3c(F)c(F)c(F)c(F)c3F)c(=O)c2-c2ccc(F)cc2)cc1 [Example 45] | 85
CS(=O)(=O)c1ccc(-c2cnn(-c3ccccc3)c(=O)c2-c2ccc(F)cc2)cc1 [Example 12] | 77
CC(c1ccc(F)cc1)n1ncc(-c2ccc(S(C)(=O)=O)cc2)c(-c2ccc(F)cc2)c1=O (stereo not shown) [Example 50] | 99
C[S+]([O-])c1ccc(-c2cnn(CC(F)(F)F)c(=O)c2-c2ccc(Cl)cc2)cc1 (stereo not shown) [Example 77] | 39
CS(=O)(=O)c1ccc(-c2cnn(-c3ccc(F)cc3)c(=O)c2N2CCCCC2)cc1 [Example 355] | 66
CS(=O)(=O)c1ccc(-c2cnn(Cc3ccccc3)c(=O)c2-c2cc3ccccc3o2)cc1 [Example 318] | 97
CC1(COc2c(-c3ccc(S(C)(=O)=O)cc3)cnn(CC(F)(F)F)c2=O)CC1 [Example 279] | 60
CS(=O)(=O)c1ccc(-c2cnn(-c3cccc(Cl)c3)c(=O)c2C2CCCCC2)cc1 [Example 368] | 96
CC(C)COc1c(-c2ccc(S(C)(=O)=O)cc2)cnn(CC(F)(F)F)c1=O [Example 278] | 96
